Recorded values, source patent US9670227B2.

# target-or-test-system: Mcl-1 protein (UniProtKB primary accession number: Q07820) (Homo sapiens, UniProt Q07820)
# Sequence (Q07820 whole entry): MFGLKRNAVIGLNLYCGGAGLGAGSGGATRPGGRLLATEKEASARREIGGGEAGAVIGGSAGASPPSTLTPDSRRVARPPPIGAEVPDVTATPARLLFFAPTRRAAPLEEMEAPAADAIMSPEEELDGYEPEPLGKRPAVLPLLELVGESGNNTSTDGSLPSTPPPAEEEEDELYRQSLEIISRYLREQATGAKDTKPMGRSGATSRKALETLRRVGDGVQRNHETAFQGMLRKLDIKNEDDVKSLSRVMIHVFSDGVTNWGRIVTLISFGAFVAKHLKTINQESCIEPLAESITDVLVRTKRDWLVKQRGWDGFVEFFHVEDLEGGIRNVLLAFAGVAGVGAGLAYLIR
# procedure-text: Inhibition of Mcl-1 by fluorescence polarisation, Method 1
# Assay type: binding
# particulars: fluorescence polarisation; Method 1, or Method 2; read-out: IC50 (M) Mcl-1 FP
parameter-measured: IC50 (M)

Examples with answers:
CCOC(=O)C(Cc1ccccc1OCc1ccnn1C(C)(C)C)Oc1ncnc2sc(-c3ccc(F)cc3)c(-c3ccc(OCCN4CCN(C)CC4)c(Cl)c3C)c12 (stereo not shown) | 2.26e-06
CC#Cc1sc2ncnc(O[C@H](Cc3ccccc3OC)C(=O)O)c2c1-c1ccc(OCCN2CCN(C)CC2)c(F)c1C | 1e-06
Cc1c(-c2c(-c3ccc(F)cc3)sc3ncnc(OC(Cc4ccccc4OCC(F)(F)F)C(=O)O)c23)ccc(OCC2CCCN2C)c1Cl (single isomer, unassigned) [Example 658] | 1.8e-08
CCc1sc2ncnc(OC(Cc3ccccc3)C(=O)O)c2c1-c1cc(Cl)c(O)cc1C (stereo not shown) [Example 438] | 8.5e-08
C=Cc1sc2ncnc(OC(Cc3ccccc3)C(=O)O)c2c1-c1cccc(Cl)c1C (stereo not shown) | 7.6e-08
CCn1nccc1COc1ccccc1CC(Oc1ncnc2sc(-c3cccc(F)c3F)c(-c3ccc(OCCN4CCN(C)CC4)c(Cl)c3C)c12)C(=O)O (stereo not shown) | 9.9e-09
COc1ccccc1C[C@@H](Oc1ncnc2sc(-c3ccc(F)cc3)c(-c3ccc(CCCN4CCN(C)CC4)c(Cl)c3C)c12)C(=O)O (single isomer, unassigned) [Example 653] | 1.6e-08
COc1ccccc1CC(Oc1ncnc2sc(-c3ccc(F)cc3)c(-c3ccc(OCCN4CCN(C)CC4)c(Cl)c3C)c12)C(=O)OCc1oc(=O)oc1C (stereo not shown) | 3.7e-07
Cc1c(-c2c(-c3ccc(F)cc3)sc3ncnc(OC(Cc4ccccc4OCC4CCCO4)C(=O)O)c23)ccc(OC2CCCN(C)C2)c1Cl (single isomer, unassigned) | 5.1e-08
COc1ccccc1CC(Oc1ncnc2sc(-c3ccc(F)cc3)c(-c3ccc(OCCN4CCN(C)CC4)c(Cl)c3C)c12)C(=O)OCOC(=O)C(C)(C)C (stereo not shown) | 6.6e-07

I = CC#Cc1sc2ncnc(OC(Cc3ccccc3OC)C(=O)O)c2c1-c1ccc(OCCN2CCCCC2)c(Cl)c1C (stereo not shown)
II = Cc1c(-c2c(-c3ccc(F)cc3)sc3ncnc(OC(Cc4ccccc4OCc4ccnn4C(C)(C)C)C(=O)O)c23)ccc(OCCN(C)C)c1Cl (stereo not shown)
Incoming: I'd appreciate it if you could identify which of I and II has the greater IC50. I would appreciate it if you answered with the label of your choice.
Outgoing: I

---

# Tested on: H929 multiple myeloma tumour line
# procedure-text: In vitro cytotoxicity, Microculture Tetrazolium Assay
# Assay type: cell-based
# particulars: Homo sapiens, NCI-H929, 48 h, H929 cells, 48 hours exposure, MTT; read-out: IC50 (μM) MTT H929
parameter-measured: IC50 (µM)
Please reply with the bare figure in µM and do not write the unit itself.

COc1ccccc1-c1nccc(COc2ccccc2CC(Oc2ncnc3sc(-c4ccc(OCc5ccccn5)cc4)c(-c4ccc(OCCN5CCN(C)CC5)c(Cl)c4C)c23)C(=O)O)n1 (stereo not drawn) | 0.01
COc1ccccc1-c1nccc(COc2ccccc2CC(Oc2ncnc3sc(-c4ccc(OCc5cccs5)cc4)c(-c4ccc(OCCN5CCN(C)CC5)c(Cl)c4C)c23)C(=O)O)n1 (stereo not drawn) | 0.008
Cc1c(OCCN2CCN(C)CC2)ccc(-c2c(-c3ccco3)sc3ncnc(OC(Cc4ccccc4OCC(F)(F)F)C(=O)O)c23)c1C (stereo not drawn) | 0.576

Incoming: Form field: reported IC50 of Cc1c(-c2c(-c3ccco3)sc3ncnc(OC(Cc4ccccc4OCC(=O)N(C)C)C(=O)O)c23)ccc(OCCN2CCN(C)CC2)c1Cl (stereo not drawn)
Outgoing: 1.48

Incoming: How about this molecule: Cc1c(-c2c(Br)sc3ncnc(OC(Cc4ccccc4)C(=O)O)c23)ccc(OCCN2CCN(C)CC2)c1Cl (stereo not drawn)
Outgoing: 9.18

Incoming: How about this molecule: CCN(C)CCOc1ccc(-c2c(-c3ccc(F)cc3)sc3ncnc(OC(Cc4ccccc4OCc4ccnc(-c5ccccc5F)n4)C(=O)O)c23)c(C)c1Cl (stereo not drawn)
Outgoing: 0.0263

Incoming: How about this molecule: CCCCn1nccc1COc1ccccc1CC(Oc1ncnc2sc(-c3ccc(-c4ccc(Cl)nc4)nc3)c(-c3ccc(OCCN4CCN(C)CC4)c(Cl)c3C)c12)C(=O)O (stereo not drawn)
Outgoing: 0.254

Incoming: How about this molecule: Cc1c(-c2c(-c3ccc(Cl)o3)sc3ncnc(OC(Cc4ccccc4OCc4ccnn4CC(F)(F)F)C(=O)O)c23)ccc(OCCN2CCN(C)CC2)c1Cl (stereo not drawn)
Outgoing: 0.012
